B1: TRIM55 (parent)
chain: YLPTRGGTTMASGGRFRCPSCRHE

- Variants of: B1
- procedure-details: protein stability index of a GFP-peptide fusion (GPS, HEK-293T) (PSI 1-6); higher = more stable;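 further: lentivirally expressed fusions sorted by FACS into six bins by GFP to DsRed ratio, PSI derived from sequencing read proportions per bin multiplied by bin number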
- experimental-setup: c terminus: a fixed tail appended
quantity: protein stability index

Use the examples below as a reference point.
protein stability index for `E24A` ? 1.59

Same again, this time with `G13P` 1.44

Same again, this time with `M10E` 1.97

Same again, this time with `G13R` 1

Same again, this time with `L2F` 2.46

Others:
protein stability index for `R22G` ? 2.79

Same again, this time with `C18N` 3.15

# credit: the supplement of paper PMC10567573
